# measurementTarget: 11 βHSD2 (Homo sapiens)
# Sequence (P80365 whole entry V148L): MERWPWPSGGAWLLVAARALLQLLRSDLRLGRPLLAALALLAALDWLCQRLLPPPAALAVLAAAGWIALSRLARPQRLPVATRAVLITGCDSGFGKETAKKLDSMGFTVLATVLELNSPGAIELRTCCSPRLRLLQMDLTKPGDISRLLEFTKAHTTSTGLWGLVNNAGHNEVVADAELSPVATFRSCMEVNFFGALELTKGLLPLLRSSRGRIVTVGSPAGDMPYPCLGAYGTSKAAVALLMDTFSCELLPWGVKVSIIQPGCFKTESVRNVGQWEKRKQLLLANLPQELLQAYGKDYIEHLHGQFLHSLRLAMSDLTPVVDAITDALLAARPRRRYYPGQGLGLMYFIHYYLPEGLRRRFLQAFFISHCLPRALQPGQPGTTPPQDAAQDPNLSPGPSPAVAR
# testDetails: Directionality and end-product inhibition in intact pHSD2 transfected CHOP cells
# Type: cell-based
# recordedConditions: monolayer cultures, 1.5 hours at 37° C., labelled substrate, TLC of culture medium
measuredProperty: metabolite formation by intact transfected CHOP cells

# compound, recordedValue
records = [
    ("C[C@]12CC(=O)[C@H]3[C@@H](CCC4=CC(=O)CC[C@@]43C)[C@@H]1CC[C@@H]2C(=O)CO [11-dehydro corticosterone]", "no metabolite formed"),
    ("C[C@]12CCC(=O)C=C1CC[C@@H]1[C@@H]2[C@@H](O)C[C@@]2(C)[C@H]1CC[C@]2(O)C(=O)CO [cortisol]", "converted"),
    ("C[C@]12CCC(=O)C=C1CC[C@@H]1[C@@H]2C(=O)C[C@@]2(C)[C@H]1CC[C@]2(O)C(=O)CO [cortisone]", "no metabolite formed"),
    ("C[C@]12C[C@H](O)[C@H]3[C@@H](CCC4=CC(=O)CC[C@@]43C)[C@@H]1CC[C@@H]2C(=O)CO [corticosterone]", "converted"),
]

Origin of measurements: patent US5883240A
